# Tested on: Alopecurus myosuroides
# Run description: Pre-emergence herbicidal action, ALOMY
# Format: in vivo
# Assay conditions: dosage 320 g/ha, scored visually after 3 weeks vs untreated controls
Consider the following molecules; for each one, report its herbicidal activity ALOMY.
Numbers only, in %.

Item CCSc1c(C(F)F)ccc(C(=O)Nc2nnnn2C)c1C1CC1 was tested on Alopecurus myosuroides; the reported herbicidal activity ALOMY is 100

State recorded herbicidal activity ALOMY for all listed molecules.
1. CCn1nnnc1NC(=O)c1ccc(C(F)F)c(S(C)(=O)=O)c1Cl
2. CCSc1c(C(F)F)ccc(C(=O)Nc2nnnn2CC)c1CC
3. CCSc1c(C(F)F)ccc(C(=O)Nc2nnnn2C)c1C
4. Cn1nnnc1NC(=O)c1ccc(C(F)F)c(S(C)(=O)=O)c1C1CC1

[A]
90
100
100
100
